Record form. Attribute: melting point. Fill in for each entry.

Requested read-out: melting point. Entry: CCOC(=O)C(NC(=O)c1ccc(OC)cc1)C(C)=O (stereo unspecified) 67 to 69 °C

Requested read-out: melting point. Entry: O=C1CCCC(=O)C1C(=O)c1ccc(C(F)(F)F)c(N2CCSCC2)n1 106 °C

Requested read-out: melting point. Entry: CCCc1c(C(=O)NCc2ccc3cc(OCC(=O)OC)ccc3c2)cnn1-c1ccc(Cl)cc1 139 to 140 °C

Requested read-out: melting point. Entry: COc1cc(C=O)ccc1OCC(=O)OC(C)(C)C 86.8 to 90 °C

Requested read-out: melting point. Entry: CN1C(=O)N(CCC(=O)O)C(C)(C)C1=O 103 °C

Requested read-out: melting point. Entry: Cc1oc(-c2ccccc2)nc1COc1cc(CCl)ccn1 104 to 105 °C

Requested read-out: melting point. Entry: N#CCOC(=O)c1cc(SCc2ccccc2)c(Cc2ccccc2)c(S(N)(=O)=O)c1 190 to 192 °C

Requested read-out: melting point. Entry: CCN(CC)C(=O)c1cc2c(cn1)[nH]c1ccccc12 170 °C

Requested read-out: melting point. Entry: O=S1C(Cl)=C(Cl)CN1C1CCCCC1 (stereo unspecified) 115 to 116 °C

Requested read-out: melting point. Entry: COc1coc2cc(NS(C)(=O)=O)c(Oc3ccccc3)cc2c1=O 164 to 166 °C

Requested read-out: melting point. Entry: CCOC(=O)C1=C(C)NC(N=CCN(C)C)=C(C(=O)OCC)C1c1ccccc1 (stereo unspecified) 126 °C

Requested read-out: melting point. Entry: CC(C)NC(=O)c1ccc2[nH]cc(CCNC(=O)OCc3ccccc3)c2c1 136 to 137 °C

Requested read-out: melting point. Entry: COc1ccc(C2CCOCC2)c2sc(NC(=O)N(C)[C@H]3CC[C@H](O)CC3)nc12 160 °C

Requested read-out: melting point. Entry: CCC(=O)NC[C@H]1CN(c2ccc3c(c2)CCCc2cnoc2-3)C(=O)O1 185 to 186 °C

Requested read-out: melting point. Entry: c1nc(Nc2ccc3[nH]ccc3c2)c2sc(-c3ccc(CNCCN4CCNCC4)cc3)cc2n1 178 to 191 °C

Requested read-out: melting point. Entry: CCn1c(=O)nc(C(C)C)c2cc3c(cc21)OCO3 180 to 185 °C

Requested read-out: melting point. Entry: CCCCCN1C(=O)C(N)(CC(=O)c2cccs2)c2ccccc21 (stereo unspecified) 167 to 169 °C

Requested read-out: melting point. Entry: C#CCNC(=O)NC1CCC(=O)c2sccc21 (stereo unspecified) 170 to 183 °C

Requested read-out: melting point. Entry: CS(=O)(=O)N[C@@H]1CCCC[C@H]1OCC(=O)O (relative stereo) 119 to 121 °C

Requested read-out: melting point. Entry: O=C(O)Cc1cc(C(=O)Cc2ccccc2)ccc1O 198 °C

Requested read-out: melting point. Entry: CNc1cc(CC(C)C)ccc1-c1ccccc1S(=O)(=O)Nc1onc(C)c1C 125 to 128 °C

Taken from a melting point compilation (Tetko et al.; mined from patent text by program, amines drawn as free bases though some values may be those of a salt).
